- system name: T1, full-length human APLNR (hAPLNR) (human, UniProt P35414 1-380)
- T1 sequence: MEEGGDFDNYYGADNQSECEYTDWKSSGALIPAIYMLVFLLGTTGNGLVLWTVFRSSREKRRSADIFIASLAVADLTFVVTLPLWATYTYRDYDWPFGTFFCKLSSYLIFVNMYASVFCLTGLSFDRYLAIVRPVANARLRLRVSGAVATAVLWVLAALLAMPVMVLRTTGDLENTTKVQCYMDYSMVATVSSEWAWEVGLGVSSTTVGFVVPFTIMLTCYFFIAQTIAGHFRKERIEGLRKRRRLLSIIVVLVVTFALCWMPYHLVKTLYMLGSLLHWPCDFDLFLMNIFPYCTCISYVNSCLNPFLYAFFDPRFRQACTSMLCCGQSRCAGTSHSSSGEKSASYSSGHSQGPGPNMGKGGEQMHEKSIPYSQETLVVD
- assay explanation: cell-based or functional assay
Give measured IC50 [M], in the presence of 100 pM Apelin (at 5 uM Forskolin), CRE-luc for each item. Keep answers brief.
The response must be a number in M with no trailing unit.

# IC50 [M], in the presence of 100 pM Apelin (at 5 uM Forskolin), CRE-luc of H2aM9225N (antibody, mouse IgG2a, V domains shown) VH: EVQLEESGGGLVQPGGSLRLSCAASGFTFTSFWMSWVRQVPGKGLQWVANIKQDGTEKYYVDSVKGRFTISRDNAKNSLYLQMNSLRAEDTAVYYCARERFGYSLFDKGVRYYYGMDVWGQGTSVTVSS VL: DIQMTQSPSSLSASVGDRVTITCRASQGIRNDLGWYQQKPGKAPKRLIYAASSLQSGVPSRFSGSGSGTEFTLTISGLQPEDFATYYCLQHNSYPRTFGQGTKVEIK = 3.5e-09

Entry under test: H2aM9226N (antibody, mouse IgG2a, V domains shown) VH: EVQLVESGGGLVQPGGSLRLSCAASGFTFSSFWMSWVRQVPGKGLEWVANIKQDGSEKYSVDSVKGRFTISRDNAKNSLYLQMNSLRAEDTAVYYCARDRFGYSFYDKGVRYYYGMDVWGQGTTVTVSS VL: DIQMTQSPSSLSVSVGDRVTITCRASQGIRNDLGWYQQKPGKAPKRLIYATSSLQSGVPSRFSGSGSGTEFTLTISGLQPEDFATYYCLQHNSYPRTFGQGTKVEIK . Its IC50 [M], in the presence of 100 pM Apelin (at 5 uM Forskolin), CRE-luc was 2.9e-09

IC50 [M], in the presence of 100 pM Apelin (at 5 uM Forskolin), CRE-luc reading for H2aM9223N (antibody, mouse IgG2a, V domains shown) VH: EVQLVESGGGLVQPGGSLRLSCAASGFTFSSFWMSWVRQVPGKGLEWVANIKQDGSEKYYVDSVKGRFTISRDNAKNSLYLQMNSLRAEDTAVYYCARDRFGYSVYDKGVRYYYGMDVWGQGTTVTVSS VL: DIQMTQSPSSLSVSVGDRVTITCRASQGIRNDLGWYQQKPGKAPKRLIYAASSLQSGVPSRFSGSGSGTEFTLTISGLQSEDFATYYCLQHKSYPRTFGQGTKVEIK : 1.2e-08
